Taken from patent US20250019432A1.

Field: Flow Fluor MFI. Provide a value for each of the binders that follow.
- tgt: human siglec12 (human) (UniProt Q96PQ1)
- test: FACS U937
Please give the numeric answer without any surrounding text.

Flow Fluor MFI lookup needed for S0040 (antibody, V domains shown) VH: QVQLVQSGAEVKKPGASVKVSCKASGYTFTSYDINWVRQATGQGLEWMGWMNPNSGNTGYAQNFQGRVTMTRNTSINTAYMELSSLRSEDTAVYYCTRGGPTLVRGVIIRDAFDFWGQGTMVTVSS VL: EIVMTQSPATLSVSPGERATLSCRASQSVSNSFAWYQQKPGQAPRLLIYGAFTRATGIPARFSGSGSGTEFTLTISSLQSEDFAVYYCQQYKTWPLTFGGGTKVEIKR , thanks. 111

Flow Fluor MFI lookup needed for S0042 (antibody, V domains shown) VH: QVQLVQSGTEVKKPGASVKVSCKVSGYTLSDLSIHWVRQAPGKGLEWMGGFEPEDGEIIYAQKFQGRVIMTEDTSTDTAYMKLSSLRSEDTAVYYCATDKRYFDWLLSGFDYWGQGTLVTVSS VL: DIQLTQSPSFLSASVGDRVTITCRASQGISSYLAWYQQKPGKAPKLLIFAASTLQSGVPSRFSGSGSGTEFTLTISSLQPEDFATYYCQRLHSYPRTFGQGTKVEIKRA , thanks. 107

Flow Fluor MFI lookup needed for S0057 (antibody, V domains shown) VH: QGQLVQSGAEVKKPGASVKVSCKASGYTFNNYGISWVRQAPGQGLEWMGWISAYNGFTRSTQKFQGRVTLTTDTSTSTAHMELRSLRSDDTAAYYCARDGGDGFDPWGQGTLVTVSS VL: EIVLTQSPATLSLSPGERATLSCRASQSVSSFLAWYQQKPGQAPRLLIFDASNRATGIPARFSGSGSGTDFTLTISSLEPEDFAVYYCQQRSNWITFGQGTRLEIKRA , thanks. 368

Flow Fluor MFI lookup needed for S0103 (antibody, V domains shown) VH: QVQLVQSGAEVKKPGASVKVSCKASGYTFTSYDINWVRQATGQGLEWMGWMNPNSGNTGYAQNFQGRVTMTRDTSVNTAYMELSSLRSEDTAVYYCARGGPNLVRGVIIRDAFDFWGQGTMVTVSS VL: EIVMTQSPATLSVSPGERATLSCRASQSVSNSFAWYQQKPGQAPRLLIYGAFTRATGIPARFSGSGSGIEFTLTISSLQSEDFAVYYCQQYKTWPLTFGGGTKVEIKR , thanks. 97
